# Test system: Staphylococcus aureus
# test: Antimicrobial activity against methicillin-resistant Staphylococcus aureus KMP9
# Type: functional
measured-quantity: MIC
Units required after the number.

Some solved cases for reference:
compound	value-measured
C=C[C@]1(C)C[C@@H](OC(=O)CN2CCN(C(=O)CCn3cnc4c(N5CC[C@@H](CNC)C5)ncnc43)CC2)[C@]2(C)[C@H](C)CC[C@]3(CCC(=O)[C@@H]32)[C@@H](C)[C@@H]1O.Cl.Cl	2 µg/mL
C=C[C@]1(C)C[C@@H](OC(=O)CN2CCN(C(=O)CCn3cnc4c(N5CC[C@H](CNC)C5)ncnc43)[C@@H](C)C2)[C@]2(C)[C@H](C)CC[C@]3(CCC(=O)[C@@H]32)[C@@H](C)[C@@H]1O.Cl.Cl	0.5 µg/mL

GET /value?item= C=C[C@]1(C)C[C@@H](OC(=O)CN2CCN(C(=O)CCn3cnc4c(N5CC[C@H](N)C5)ncnc43)[C@@H](C)C2)[C@]2(C)[C@H](C)CC[C@]3(CCC(=O)[C@@H]32)[C@@H](C)[C@@H]1O.Cl.Cl &field=MIC returns 0.5 µg/mL

GET /value?item= C=C[C@]1(C)C[C@@H](OC(=O)CN2CCN(C(=O)CCn3cnc4c(N5CCC(N)C5)ncnc43)C[C@@H]2C)[C@]2(C)[C@H](C)CC[C@]3(CCC(=O)[C@@H]32)[C@@H](C)[C@@H]1O.Cl (stereo not given in full) &field=MIC returns 0.5 µg/mL

GET /value?item= C=C[C@]1(C)C[C@@H](OC(=O)CN2CCN(C(=O)CCn3cnc4c(N5CCC(NCC)C5)ncnc43)CC2)[C@]2(C)[C@H](C)CC[C@]3(CCC(=O)[C@@H]32)[C@@H](C)[C@@H]1O.Cl.Cl (stereo not given in full) &field=MIC returns 0.5 µg/mL

* * *

# Tested on: Streptococcus pyogenes
# test: Antimicrobial activity against Streptococcus pyogenes ATCC 112344 by NCCLS method
# Type: functional
measured-quantity: MIC
Units required after the number.

Some solved cases for reference:
molecule	MIC
C=C[C@]1(C)C[C@@H](OC(=O)CN2CC(C)N(C(=O)CCn3cnc4c(N5CCC(N)C5)ncnc43)C(C)C2)[C@]2(C)[C@H](C)CC[C@]3(CCC(=O)[C@@H]32)[C@@H](C)[C@@H]1O.Cl.Cl (stereo not given in full)	0.016 µg/mL
C=C[C@]1(C)C[C@@H](OC(=O)CN2CCN(C(=O)CCn3cnc4c(N5CCC(NCC)C5)ncnc43)CC2)[C@]2(C)[C@H](C)CC[C@]3(CCC(=O)[C@@H]32)[C@@H](C)[C@@H]1O.Cl.Cl (stereo not given in full)	0.063 µg/mL
C=C[C@]1(C)C[C@@H](OC(=O)CN2CCN(C(=O)CCn3cnc4c(N5CCC(N)C5)ncnc43)C[C@H]2C)[C@]2(C)[C@H](C)CC[C@]3(CCC(=O)[C@@H]32)[C@@H](C)[C@@H]1O.Cl.Cl (stereo not given in full)	0.016 µg/mL
C=C[C@]1(C)C[C@@H](OC(=O)CN2CCN(C(=O)CCn3cnc4c(N5CCC(N)C5)ncnc43)C[C@@H]2C)[C@]2(C)[C@H](C)CC[C@]3(CCC(=O)[C@@H]32)[C@@H](C)[C@@H]1O.Cl (stereo not given in full)	0.032 µg/mL

GET /value?item= C=C[C@]1(C)C[C@@H](OC(=O)CN2CCN(C(=O)CCn3cnc4c(N5CCC(CNC)C5)ncnc43)CC2)[C@]2(C)[C@H](C)CC[C@]3(CCC(=O)[C@@H]32)[C@@H](C)[C@@H]1O.Cl.Cl (stereo not given in full) &field=MIC returns 0.032 µg/mL

* * *

# Tested on: Moraxella catarrhalis
# test: Antimicrobial activity against Moraxella catarrhalis K1209 by NCCLS method
# Format: functional
measured-quantity: MIC (µg/mL)
Give the number; µg/mL is assumed, so skip it.

GET /value?item= C=C[C@]1(C)C[C@@H](OC(=O)CN2CCCN(C(=O)CCn3cnc4c(N5CCC(N)C5)ncnc43)CC2)[C@]2(C)[C@H](C)CC[C@]3(CCC(=O)[C@@H]32)[C@@H](C)[C@@H]1O.Cl.Cl (some centres undefined) &field=MIC returns 0.25

GET /value?item= C=C[C@]1(C)C[C@@H](OC(=O)CN2CCN(C(=O)CCn3cnc4c(N5CCC(N)C5)ncnc43)C(C)(C)C2)[C@]2(C)[C@H](C)CC[C@]3(CCC(=O)[C@@H]32)[C@@H](C)[C@@H]1O.Cl.Cl (some centres undefined) &field=MIC returns 0.032

GET /value?item= C=C[C@]1(C)C[C@@H](OC(=O)CN2CCN(C(=O)CCn3cnc4c(N5CCC(N)C5)ncnc43)C[C@H]2C)[C@]2(C)[C@H](C)CC[C@]3(CCC(=O)[C@@H]32)[C@@H](C)[C@@H]1O.Cl.Cl (some centres undefined) &field=MIC returns 0.063

GET /value?item= C=C[C@]1(C)C[C@@H](OC(=O)CN2CCN(C(=O)CCn3cnc4c(N5CCC(N(C)C)C5)ncnc43)CC2)[C@]2(C)[C@H](C)CC[C@]3(CCC(=O)[C@@H]32)[C@@H](C)[C@@H]1O.Cl.Cl (some centres undefined) &field=MIC returns 0.125

GET /value?item= C=C[C@]1(C)C[C@@H](OC(=O)CN2CCN(C(=O)CCn3cnc4c(N5CCC(CNC)C5)ncnc43)CC2)[C@]2(C)[C@H](C)CC[C@]3(CCC(=O)[C@@H]32)[C@@H](C)[C@@H]1O.Cl.Cl (some centres undefined) &field=MIC returns 0.5

GET /value?item= C=C[C@]1(C)C[C@@H](OC(=O)CN2CCN(C(=O)CCn3cnc4c(N5CCC(N)C5)ncnc43)CC2C)[C@]2(C)[C@H](C)CC[C@]3(CCC(=O)[C@@H]32)[C@@H](C)[C@@H]1O.Cl.Cl (some centres undefined) &field=MIC returns 0.125

GET /value?item= C=C[C@]1(C)C[C@@H](OC(=O)CN2CCN(C(=O)CCn3cnc4c(N5CCC(N)CC5)ncnc43)CC2)[C@]2(C)[C@H](C)CC[C@]3(CCC(=O)[C@@H]32)[C@@H](C)[C@@H]1O.Cl.Cl &field=MIC returns 0.125

GET /value?item= C=C[C@]1(C)C[C@@H](OC(=O)CN2CCN(C(=O)CCn3cnc4c(N5CCNCC5)ncnc43)CC2)[C@]2(C)[C@H](C)CC[C@]3(CCC(=O)[C@@H]32)[C@@H](C)[C@@H]1O.Cl.Cl &field=MIC returns 0.063

GET /value?item= C=C[C@]1(C)C[C@@H](OC(=O)CN2CCN(C(=O)CCn3cnc4c(N5CCC(N)C5)ncnc43)CC2)[C@]2(C)[C@H](C)CC[C@]3(CCC(=O)[C@@H]32)[C@@H](C)[C@@H]1O.Cl.Cl (some centres undefined) &field=MIC returns 0.25

GET /value?item= C=C[C@]1(C)C[C@@H](OC(=O)CN2CCN(C(=O)CCn3cnc4c(N5CCC(NCC)C5)ncnc43)CC2)[C@]2(C)[C@H](C)CC[C@]3(CCC(=O)[C@@H]32)[C@@H](C)[C@@H]1O.Cl.Cl (some centres undefined) &field=MIC returns 0.125

GET /value?item= C=C[C@]1(C)C[C@@H](OC(=O)CN2CC(C)N(C(=O)CCn3cnc4c(N5CCC(N)C5)ncnc43)C(C)C2)[C@]2(C)[C@H](C)CC[C@]3(CCC(=O)[C@@H]32)[C@@H](C)[C@@H]1O.Cl.Cl (some centres undefined) &field=MIC returns 0.063

GET /value?item= C=C[C@]1(C)C[C@@H](OC(=O)CN2CCN(C(=O)CCn3cnc4c(N5CC[C@H](N)C5)ncnc43)[C@@H](C)C2)[C@]2(C)[C@H](C)CC[C@]3(CCC(=O)[C@@H]32)[C@@H](C)[C@@H]1O.Cl.Cl &field=MIC returns 0.125

GET /value?item= C=C[C@]1(C)C[C@@H](OC(=O)CN2CCN(C(=O)CCn3cnc4c(N5CCC(N)C5)ncnc43)C(C)C2)[C@]2(C)[C@H](C)CC[C@]3(CCC(=O)[C@@H]32)[C@@H](C)[C@@H]1O.Cl.Cl (some centres undefined) &field=MIC returns 0.125

GET /value?item= C=C[C@]1(C)C[C@@H](OC(=O)CN2CCN(C(=O)CCn3cnc4c(N5CC[C@H](CNC)C5)ncnc43)[C@@H](C)C2)[C@]2(C)[C@H](C)CC[C@]3(CCC(=O)[C@@H]32)[C@@H](C)[C@@H]1O.Cl.Cl &field=MIC returns 0.125

GET /value?item= C=C[C@]1(C)C[C@@H](OC(=O)CN2CCN(C(=O)CCn3cnc4c(N5CCC(N)C5)ncnc43)[C@@H](C)C2)[C@]2(C)[C@H](C)CC[C@]3(CCC(=O)[C@@H]32)[C@@H](C)[C@@H]1O.Cl.Cl (some centres undefined) &field=MIC returns 0.125

GET /value?item= C=C[C@]1(C)C[C@@H](OC(=O)CN2CCN(C(=O)CCn3cnc4c(N5CCC(N)CC5)ncnc43)[C@@H](C)C2)[C@]2(C)[C@H](C)CC[C@]3(CCC(=O)[C@@H]32)[C@@H](C)[C@@H]1O.Cl.Cl &field=MIC returns 0.125

GET /value?item= C=C[C@]1(C)C[C@@H](OC(=O)CN2CCN(C(=O)CCn3cnc4c(N5CC[C@@H](N)C5)ncnc43)[C@@H](C)C2)[C@]2(C)[C@H](C)CC[C@]3(CCC(=O)[C@@H]32)[C@@H](C)[C@@H]1O.Cl.Cl &field=MIC returns 0.125

GET /value?item= C=C[C@]1(C)C[C@@H](OC(=O)CN2CCN(C(=O)CCn3cnc4c(N5CCC(CN)CC5)ncnc43)CC2)[C@]2(C)[C@H](C)CC[C@]3(CCC(=O)[C@@H]32)[C@@H](C)[C@@H]1O.Cl.Cl &field=MIC returns 0.125

GET /value?item= C=C[C@]1(C)C[C@@H](OC(=O)CN2CCN(C(=O)CCn3cnc4c(N5CCC(N)C5)ncnc43)C[C@@H]2C)[C@]2(C)[C@H](C)CC[C@]3(CCC(=O)[C@@H]32)[C@@H](C)[C@@H]1O.Cl (some centres undefined) &field=MIC returns 0.125
